- assay-info: folding enthalpy; higher = less favourable; fluorescence melt of hairpins on a sequencing array, two-state fit
- conditions-used: sodium 0.088 M
Kindly return Met if reported folding enthalpy is no lower than -20 kcal/mol; return Not met if it is lower.

INSERT INTO results (residues, classification) VALUES
  ('GCCATGCGAAAGCAGGC (((.(((....))))))', 'Not met'),
  ('GCCCAGGGAAACCTGGAC (.(((((....))))).)', 'Met'),
  ('GTTTTCCGAAAGGAAAC (((.(((....))))))', 'Met'),
  ('GTGTCCCGAAAGGGCCAC (((.(((....))).)))', 'Not met'),
  ('GGCAACGAAAGTTTCGCC ((((((....)))..)))', 'Met'),
  ('GGCATCGAAAGATGAGCC ((((((....)))..)))', 'Met'),
  ('GTGCCAGGAAACTAGCAC ((((.((....)).))))', 'Not met'),
  ('GATCTTCACGAAGATC ((((((....))))))', 'Not met'),
  ('GCAAACGAAAGTTCGTGC ((((((....)))..)))', 'Met'),
  ('GCGGACGGAAACGCCCAC (.((.((....)).)).)', 'Met'),
  ('GCGTTAGCACGC ((((....))))', 'Met'),
  ('GACGCCGAAAGGCTAGTC ((((((....)))..)))', 'Met'),
  ('GCTTGGCGAAAGCCCCGC ((..(((....)))..))', 'Met'),
  ('GTTAACGGAAACGTTAAC (((((((....)))))))', 'Not met'),
  ('GGGAAGCGAAAGCTCCC (((.(((....))))))', 'Not met'),
  ('GTCCACGAAAGTGAGAC ((((((....))).)))', 'Not met'),
  ('GGGTCGGGAAACCAACCC ((((.((....)).))))', 'Not met'),
  ('GCATTCCGAAAGGATTGC (((.(((....))).)))', 'Not met'),
  ('GCAACCGAAAGGTTATGC ((((((....)))..)))', 'Met'),
  ('GTTCACCGAAAGGTCAAC (((.(((....))).)))', 'Met'),
  ('GAATATGAAAATATTC ((((((....))))))', 'Not met'),
  ('GCTCTCACGAAAGTGAGC (((..(((....))))))', 'Met'),
  ('GATCGACCGGTCGATC ((((((....))))))', 'Not met'),
  ('GGTCCCGCGAAAGCGACC (((..(((....))))))', 'Met'),
  ('GATGATGCGAAAGCAATC (((..(((....))))))', 'Met'),
  ('GATTACGAAAGTATATC ((((((....))).)))', 'Met'),
  ('GACAGCGAAAGCTTAGTC ((((((....)))..)))', 'Met'),
  ('GCAAGGACGAAAGTCTGC (((..(((....))))))', 'Met'),
  ('GATCGATCATCGATC ((((((...))))))', 'Not met'),
  ('GGATACGAAAGTAAATCC ((((((....)))..)))', 'Met'),
  ('GATCACTCCCGTGATC ((((((....))))))', 'Not met'),
  ('GCAAGCGAAAGCTTTTGC ((((((....)))..)))', 'Met'),
  ('GGCGACGAAAGTCACGCC ((((((....)))..)))', 'Not met'),
  ('GATCCGTGTTCGGATC ((((((....))))))', 'Not met'),
  ('GCGCAACGAAAGTTCCGC (((.(((....))).)))', 'Not met'),
  ('GATCAGGTGCTGATC ((((((...))))))', 'Not met'),
  ('GCCTTGGAAACAAGGC ((((((....))))))', 'Not met'),
  ('GTTTGACGAAAGTCCAAC (((.(((....))).)))', 'Not met'),
  ('GCCTCACGAAAGTGCGGC (((.(((....))).)))', 'Not met'),
  ('GTTTGACGAAAGTCTAAC (((.(((....))).)))', 'Not met'),
  ('GTTGGGGGAAACCTCAGC (.((.((....)).)).)', 'Met'),
  ('GATCTGGAACCAGATC ((((((....))))))', 'Not met'),
  ('GACGTCGGAAACGACATC ((.((((....)))).))', 'Met'),
  ('GATGCCGAAAGGCTCATC ((((((....)))..)))', 'Met'),
  ('GCTTCACGAAAGTGAGC (((.(((....))))))', 'Met'),
  ('GCCTAGCGAAAGCTATGC ((.((((....)))).))', 'Not met'),
  ('GCAGTCGAAAGACGCTGC ((((((....)))..)))', 'Not met');

----------
- assay-info: melting temperature; fluorescence melt of hairpins on a sequencing array, two-state fit, raised by 9.35 °C to match UV melts
- conditions-used: sodium 0.088 M
parameter: Tm (°C)

INSERT INTO assay_data (residues, test_value) VALUES
  ('GCGGGGCGAAAGCGCGGC ((.(.((....)).).))', 62.5),
  ('GACATCACGAAAGTGGTC (((..(((....))))))', 34.7),
  ('CGGCTCGGAAACGATCCG (((.(((....))).)))', 49.2),
  ('GTCAAACGAAAGTTGAC (((.(((....))))))', 49.7),
  ('GCGAAGACTCGC ((((....))))', 44.8);

----------
- assay-info: melting temperature; fluorescence melt of hairpins on a sequencing array, two-state fit, raised by 9.35 °C to match UV melts
- conditions-used: sodium 0.088 M
Friendly reminder: Tm below 40 °C is y, at or above is n.

INSERT INTO measurements (residues, classification) VALUES
  ('GTAGGCCGAAAGGCTTAC (((.(((....))).)))', 'n'),
  ('CAAATGAAAATTTG (((((....)))))', 'y'),
  ('GGACTGGAAACAGTCC ((((((....))))))', 'n'),
  ('GCTAGGCGAAAGCCTTGC ((.((((....)))).))', 'n'),
  ('CGCCGCGGAAACGCGCG (((.(((....))))))', 'n');

----------
The entries below are paired with their reported Tm.
- assay-info: melting temperature; fluorescence melt of hairpins on a sequencing array, two-state fit, raised by 9.35 °C to match UV melts
- conditions-used: sodium 0.088 M
parameter: Tm (°C)

INSERT INTO assay_data (residues, test_value) VALUES
  ('GGCTCGCGAAAGCGGCC (((.(((....))))))', 66.5),
  ('GTGATCCGAAAGGAGCAC (((.(((....))).)))', 66.4),
  ('GTGAGTGGAAACATTCAC ((((.((....)).))))', 43.9),
  ('GGCGGTGGAAACACCGTC (.(((((....))))).)', 65.8),
  ('GCACTGCGAAAGCATAGC ((..(((....)))..))', 35.6),
  ('GGGTTAGCGAAAGCTCCC (((..(((....))))))', 41.8),
  ('GGTGTAGAAATACACC ((((((....))))))', 53.7),
  ('GCATTCTCGAAAGAGTGC (((..(((....))))))', 40.9),
  ('GTGTCCCGAAAGGGCCAC (((.(((....))).)))', 56.4),
  ('GATACCGAAAGGTTGATC ((((((....)))..)))', 31.4),
  ('GATCATCTCGATGATC ((((((....))))))', 54.6),
  ('GTTGAACGAAAGTTAAC (((.(((....))))))', 30);

----------
- assay-info: folding enthalpy; higher = less favourable; fluorescence melt of hairpins on a sequencing array, two-state fit
- conditions-used: sodium 0.088 M
parameter: folding enthalpy (kcal/mol)

INSERT INTO assay_data (residues, test_value) VALUES
  ('GCCGGGCGAAAGCAGGGC (((..((....))..)))', -29),
  ('GATCAGCCACTGATC ((((((...))))))', -32),
  ('GGACAAGGAAACTTGTCC (((((((....)))))))', -45),
  ('GATACCCGAAAGGGCATC (((.(((....))).)))', -18.8),
  ('GATCGTAGGAACGATC ((((((....))))))', -30.9),
  ('GAGTGCGAAAGCACCTC ((((((....))).)))', -10.3),
  ('GCAAATTCGAAAGAATGC (((..(((....))))))', -18.4),
  ('GTCCTTGGAAACAAGAAC ((.((((....)))).))', -14.2),
  ('GGTATCCCGAAAGGGACC (((..(((....))))))', -9.73),
  ('GCCCTGCGAAAGCTGAGC ((.(.((....)).).))', -13.9),
  ('GGTCAGGCGAAAGCCACC (((..(((....))))))', -11.2),
  ('GTTGGAGAAATCCAAC ((((((....))))))', -32);
